Biological target: full-length kinase/Nluc fusion proteins (Homo sapiens)
Sequence (P29320 21-983): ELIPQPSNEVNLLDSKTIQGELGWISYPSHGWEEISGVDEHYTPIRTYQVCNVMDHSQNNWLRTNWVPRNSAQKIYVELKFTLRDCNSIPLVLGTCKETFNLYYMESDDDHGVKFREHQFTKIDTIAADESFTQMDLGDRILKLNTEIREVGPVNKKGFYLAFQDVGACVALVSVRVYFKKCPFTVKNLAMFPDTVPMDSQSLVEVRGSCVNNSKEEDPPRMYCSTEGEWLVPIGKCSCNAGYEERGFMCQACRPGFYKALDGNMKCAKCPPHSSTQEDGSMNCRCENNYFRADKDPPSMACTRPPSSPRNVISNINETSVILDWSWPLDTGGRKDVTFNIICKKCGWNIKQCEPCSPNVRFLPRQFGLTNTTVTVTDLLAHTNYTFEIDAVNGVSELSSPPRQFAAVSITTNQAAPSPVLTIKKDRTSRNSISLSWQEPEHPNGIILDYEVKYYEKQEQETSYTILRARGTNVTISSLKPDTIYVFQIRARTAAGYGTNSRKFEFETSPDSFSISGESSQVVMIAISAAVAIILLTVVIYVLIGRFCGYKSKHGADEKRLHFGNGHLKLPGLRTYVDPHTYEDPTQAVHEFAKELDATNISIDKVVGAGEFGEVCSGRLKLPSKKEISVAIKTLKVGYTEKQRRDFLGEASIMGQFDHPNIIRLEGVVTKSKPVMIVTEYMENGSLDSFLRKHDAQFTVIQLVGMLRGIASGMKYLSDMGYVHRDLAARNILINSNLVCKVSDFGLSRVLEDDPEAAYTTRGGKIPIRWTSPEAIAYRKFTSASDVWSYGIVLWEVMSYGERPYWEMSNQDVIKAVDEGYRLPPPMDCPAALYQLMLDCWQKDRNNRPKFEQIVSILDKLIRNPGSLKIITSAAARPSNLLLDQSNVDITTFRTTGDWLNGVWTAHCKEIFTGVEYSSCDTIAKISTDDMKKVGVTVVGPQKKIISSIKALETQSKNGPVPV
Assay: Apparent affinity (EC50) of energy transfer probes by titration onto live HEK293 cells expressing kinase/Nluc fusions (Table S1)
Details: EPHA3, Nluc C; read-out: Probe EC50
PROPERTY_LABEL: pEC50
Interpret pEC50 as the negative base-10 log of the concentration measured in mol/L.

For reference, reported pEC50 for N#CCc1ccc(Nc2nc(NCCCCNC(=O)CCc3ccc4n3[B-](F)(F)[N+]3=C(c5ccc[nH]5)C=CC3=C4)cc(Nc3cc(C4CC4)[nH]n3)n2)cc1 [Energy Transfer Probe 1] stands at 6.70

----------
Molecular target: full-length kinase/Nluc fusion proteins (Homo sapiens)
Assay: Apparent affinity (EC50) of energy transfer probes by titration onto live HEK293 cells expressing kinase/Nluc fusions (Table S1)
Details: INSR, Nluc C; read-out: Probe EC50
pEC50: −log10 of the molar value.
PROPERTY_LABEL: pEC50

Lab note: measured pEC50 of CNC(=O)c1ccccc1Nc1nc(Nc2ccc(N3CCN(C(=O)CCOCCOCCOCCOCCNC(=O)CCc4ccc5n4[B-](F)(F)[N+]4=C(c6ccc[nH]6)C=CC4=C5)CC3)cc2)ncc1Cl [Energy Transfer Probe 5] was < 6.00

----------
Target: full-length kinase/Nluc fusion proteins (Homo sapiens)
Sequence (P54762 18-984): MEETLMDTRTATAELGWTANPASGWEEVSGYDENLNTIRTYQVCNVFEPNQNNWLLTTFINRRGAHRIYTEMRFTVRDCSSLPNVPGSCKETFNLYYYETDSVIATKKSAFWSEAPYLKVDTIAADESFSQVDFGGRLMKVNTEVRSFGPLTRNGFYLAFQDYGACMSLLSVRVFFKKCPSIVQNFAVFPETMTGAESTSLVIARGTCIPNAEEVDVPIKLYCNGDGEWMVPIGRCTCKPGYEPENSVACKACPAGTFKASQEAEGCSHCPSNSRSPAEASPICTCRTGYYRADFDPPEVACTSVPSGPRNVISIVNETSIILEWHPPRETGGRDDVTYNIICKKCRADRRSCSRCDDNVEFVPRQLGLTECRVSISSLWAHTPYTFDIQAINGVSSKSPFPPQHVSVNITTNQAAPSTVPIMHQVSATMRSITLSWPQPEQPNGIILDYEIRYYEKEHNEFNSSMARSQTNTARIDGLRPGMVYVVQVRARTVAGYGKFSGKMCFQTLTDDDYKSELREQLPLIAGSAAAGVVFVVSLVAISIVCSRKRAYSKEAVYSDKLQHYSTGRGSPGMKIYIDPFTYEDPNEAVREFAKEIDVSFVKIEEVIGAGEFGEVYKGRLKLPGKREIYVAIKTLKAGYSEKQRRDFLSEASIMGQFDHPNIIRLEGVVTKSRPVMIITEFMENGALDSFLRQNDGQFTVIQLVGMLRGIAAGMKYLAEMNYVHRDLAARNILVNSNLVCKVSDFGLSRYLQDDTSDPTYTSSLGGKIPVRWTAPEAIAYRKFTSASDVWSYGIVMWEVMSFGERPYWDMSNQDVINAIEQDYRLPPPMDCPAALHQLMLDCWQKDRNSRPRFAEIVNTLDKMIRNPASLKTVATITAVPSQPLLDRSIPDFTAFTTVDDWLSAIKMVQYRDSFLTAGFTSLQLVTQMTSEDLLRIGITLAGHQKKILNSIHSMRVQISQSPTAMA
Experiment: Apparent affinity (EC50) of energy transfer probes by titration onto live HEK293 cells expressing kinase/Nluc fusions (Table S1)
Type: binding
Conditions: EPHB1, Nluc C; read-out: Probe EC50
PROPERTY_LABEL: EC50 (µM)
Write the number in µM without appending the unit.

# compound N#CCc1ccc(Nc2nc(NCCCCNC(=O)CCc3ccc4n3[B-](F)(F)[N+]3=C(c5ccc[nH]5)C=CC3=C4)cc(Nc3cc(C4CC4)[nH]n3)n2)cc1 [Energy Transfer Probe 1] ; its EC50 = 0.2

----------
Target: full-length kinase/Nluc fusion proteins (Homo sapiens)
Assay: Apparent affinity (EC50) of energy transfer probes by titration onto live HEK293 cells expressing kinase/Nluc fusions (Table S1)
Conditions: ALK, Nluc C; read-out: Probe EC50
PROPERTY_LABEL: EC50

EC50 measured on CNC(=O)c1ccccc1Nc1nc(Nc2ccc(N3CCN(C(=O)CCOCCOCCOCCOCCNC(=O)CCc4ccc5n4[B-](F)(F)[N+]4=C(c6ccc[nH]6)C=CC4=C5)CC3)cc2)ncc1Cl [Energy Transfer Probe 5] = > 1000 nM

----------
Target: full-length kinase/Nluc fusion proteins (Homo sapiens)
Assay: Apparent affinity (EC50) of energy transfer probes by titration onto live HEK293 cells expressing kinase/Nluc fusions (Table S1)
Conditions: CSNK1G2, Nluc N; read-out: Probe EC50
pEC50: −log10 of the molar value.
PROPERTY_LABEL: pEC50

// sample CNC(=O)c1ccccc1Nc1nc(Nc2ccc(N3CCN(C(=O)CCOCCOCCOCCOCCNC(=O)CCc4ccc5n4[B-](F)(F)[N+]4=C(c6ccc[nH]6)C=CC4=C5)CC3)cc2)ncc1Cl [Energy Transfer Probe 5] , its pEC50 was < 6.00

----------
Molecular target: full-length kinase/Nluc fusion proteins (Homo sapiens, UniProt Q13131)
Sequence (Q13131 whole entry, the tested form may be a part): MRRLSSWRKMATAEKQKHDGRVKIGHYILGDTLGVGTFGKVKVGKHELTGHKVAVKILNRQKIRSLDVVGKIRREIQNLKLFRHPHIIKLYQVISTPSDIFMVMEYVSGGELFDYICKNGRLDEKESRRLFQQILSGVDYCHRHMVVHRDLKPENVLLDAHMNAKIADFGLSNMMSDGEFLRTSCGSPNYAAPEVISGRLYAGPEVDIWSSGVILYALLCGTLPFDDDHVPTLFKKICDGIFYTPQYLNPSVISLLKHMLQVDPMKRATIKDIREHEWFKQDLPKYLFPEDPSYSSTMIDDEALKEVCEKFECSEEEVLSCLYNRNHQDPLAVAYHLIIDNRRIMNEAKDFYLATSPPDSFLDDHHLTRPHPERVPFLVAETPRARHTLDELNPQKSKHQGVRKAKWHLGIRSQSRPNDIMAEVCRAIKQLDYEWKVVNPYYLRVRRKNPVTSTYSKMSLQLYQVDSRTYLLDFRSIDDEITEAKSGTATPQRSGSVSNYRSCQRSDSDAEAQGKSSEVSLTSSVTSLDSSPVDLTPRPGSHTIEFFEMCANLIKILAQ
Test: Apparent affinity (EC50) of energy transfer probes by titration onto live HEK293 cells expressing kinase/Nluc fusions (Table S1)
Conditions: PRKAA1, Nluc N; read-out: Probe EC50
PROPERTY_LABEL: pEC50
Reminder that pEC50 is minus the log10 of a molar concentration.

According to the records, this molecule CNC(=O)c1ccccc1Nc1nc(Nc2ccc(N3CCN(C(=O)CCOCCOCCOCCOCCNC(=O)CCc4ccc5n4[B-](F)(F)[N+]4=C(c6ccc[nH]6)C=CC4=C5)CC3)cc2)ncc1Cl [Energy Transfer Probe 5] displays pEC50 of 6.52

----------
Biological target: full-length kinase/Nluc fusion proteins (Homo sapiens)
Assay: Apparent affinity (EC50) of energy transfer probes by titration onto live HEK293 cells expressing kinase/Nluc fusions (Table S1)
Conditions: BMX, Nluc C; read-out: Probe EC50
PROPERTY_LABEL: EC50 (nM)
All answers are understood in nM, so give the number only.

# EC50 of Cc1nc(Nc2ncc(C(=O)Nc3c(C)cccc3Cl)s2)cc(N2CCN(CCOCCNC(=O)CCc3ccc4n3[B-](F)(F)[N+]3=C(c5ccc[nH]5)C=CC3=C4)CC2)n1 [Energy Transfer Probe 6] = 300

----------
Target: full-length kinase/Nluc fusion proteins (Homo sapiens, UniProt P09619)
Sequence (P09619 33-1106): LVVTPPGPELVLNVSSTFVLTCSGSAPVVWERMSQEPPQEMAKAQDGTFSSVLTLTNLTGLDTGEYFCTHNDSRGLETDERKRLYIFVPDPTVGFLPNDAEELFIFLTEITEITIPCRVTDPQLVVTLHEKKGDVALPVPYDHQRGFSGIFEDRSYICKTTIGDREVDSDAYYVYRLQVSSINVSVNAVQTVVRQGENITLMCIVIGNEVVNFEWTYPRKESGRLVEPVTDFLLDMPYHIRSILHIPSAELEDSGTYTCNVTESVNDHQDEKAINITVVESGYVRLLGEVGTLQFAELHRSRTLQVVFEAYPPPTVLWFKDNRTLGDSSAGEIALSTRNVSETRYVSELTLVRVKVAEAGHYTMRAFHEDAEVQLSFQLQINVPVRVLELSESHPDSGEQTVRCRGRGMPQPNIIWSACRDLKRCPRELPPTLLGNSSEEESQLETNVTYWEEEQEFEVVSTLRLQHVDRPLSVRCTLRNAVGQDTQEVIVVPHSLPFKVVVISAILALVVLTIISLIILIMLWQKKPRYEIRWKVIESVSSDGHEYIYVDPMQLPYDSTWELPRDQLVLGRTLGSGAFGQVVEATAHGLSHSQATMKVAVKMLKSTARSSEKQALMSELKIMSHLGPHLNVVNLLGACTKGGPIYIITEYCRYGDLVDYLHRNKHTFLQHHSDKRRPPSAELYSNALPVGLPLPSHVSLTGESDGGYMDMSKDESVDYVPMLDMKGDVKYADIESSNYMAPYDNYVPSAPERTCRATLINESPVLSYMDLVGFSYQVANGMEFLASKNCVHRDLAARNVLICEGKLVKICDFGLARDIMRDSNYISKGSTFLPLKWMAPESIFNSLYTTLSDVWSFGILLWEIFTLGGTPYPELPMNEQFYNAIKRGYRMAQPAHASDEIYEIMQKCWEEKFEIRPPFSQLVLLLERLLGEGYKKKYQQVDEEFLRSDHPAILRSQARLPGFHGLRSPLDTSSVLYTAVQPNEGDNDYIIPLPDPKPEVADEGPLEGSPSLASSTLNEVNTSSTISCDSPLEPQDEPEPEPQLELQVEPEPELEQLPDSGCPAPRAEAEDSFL
Assay: Apparent affinity (EC50) of energy transfer probes by titration onto live HEK293 cells expressing kinase/Nluc fusions (Table S1)
Details: PDGFRB, Nluc C; read-out: Probe EC50
PROPERTY_LABEL: EC50 (nM)
Could you give me the number in nM? Just the number is fine.

The compound Cc1nc(Nc2ncc(C(=O)Nc3c(C)cccc3Cl)s2)cc(N2CCN(CCOCCNC(=O)CCc3ccc4n3[B-](F)(F)[N+]3=C(c5ccc[nH]5)C=CC3=C4)CC2)n1 [Energy Transfer Probe 6] on full-length kinase/Nluc fusion proteins (Homo sapiens, UniProt P09619): EC50 was 200

Origin of the recorded values: paper PMC5814754
